Exercise: for every item that follows, state its recorded A450.
# measured target: T1, Mouse Id3: Histidine (mouse, UniProt P41133 1-119)
# T1 construct: Fusion protein made in E. coli from vector pGW07; also called m-Id3: His; Mouse Id3 (coated wells); not shown: His tag
# T1 sequence: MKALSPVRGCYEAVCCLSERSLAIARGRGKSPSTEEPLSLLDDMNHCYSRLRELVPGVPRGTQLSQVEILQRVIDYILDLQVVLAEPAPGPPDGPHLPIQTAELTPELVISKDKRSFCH
# assay name: ELISA, Ab 0.025 µg/ml
Lab book: enter the figure in A450, no units written.

Given item rabbit monoclonal anti-mouse/human Id3, clone #BCH-4/#16-1 (antibody, V domains shown, Rabbit IgG from a rabbit hybridoma; also called m/h Id3 MoAb 16-1) VH: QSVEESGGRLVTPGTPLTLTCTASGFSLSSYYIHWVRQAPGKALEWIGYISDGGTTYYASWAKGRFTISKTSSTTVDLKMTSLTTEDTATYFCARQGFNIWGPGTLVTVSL VL: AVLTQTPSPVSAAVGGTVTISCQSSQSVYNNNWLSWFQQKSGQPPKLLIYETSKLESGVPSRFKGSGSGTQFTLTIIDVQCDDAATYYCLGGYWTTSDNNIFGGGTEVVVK , the value recorded as its A450 is 0.953

Noted for rabbit monoclonal anti-mouse/human Id3, clone #BCH-4/#17-3 (antibody, V domains shown, Rabbit IgG from a rabbit hybridoma; also called m/h Id3 MoAb 17-3; BCH-3/#17-3) VH: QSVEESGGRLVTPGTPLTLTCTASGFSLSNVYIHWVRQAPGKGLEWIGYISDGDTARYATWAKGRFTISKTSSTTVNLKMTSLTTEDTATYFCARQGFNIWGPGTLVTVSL VL: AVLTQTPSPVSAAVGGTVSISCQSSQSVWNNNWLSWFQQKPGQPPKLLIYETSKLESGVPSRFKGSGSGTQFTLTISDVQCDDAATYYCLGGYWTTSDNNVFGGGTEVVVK : its A450 reads 1.4

Query rabbit monoclonal anti-mouse/human Id3, clone #BCH-4/#6-1 (antibody, V domains shown, Rabbit IgG from a rabbit hybridoma; also called m/h Id3 MoAb 6-1) VH: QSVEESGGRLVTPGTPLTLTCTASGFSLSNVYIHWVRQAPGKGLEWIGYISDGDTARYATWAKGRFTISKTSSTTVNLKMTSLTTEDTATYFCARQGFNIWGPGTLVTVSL VL: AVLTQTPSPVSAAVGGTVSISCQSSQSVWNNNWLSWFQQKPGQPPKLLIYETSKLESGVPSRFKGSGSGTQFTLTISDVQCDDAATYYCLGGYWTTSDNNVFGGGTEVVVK yields A450 of 1.13

According to the records, this binder rabbit monoclonal anti-mouse/human Id3, clone #BCH-4/#42-1 (antibody, V domains shown, Rabbit IgG from a rabbit hybridoma; also called m/h Id3 MoAb 42-1) VH: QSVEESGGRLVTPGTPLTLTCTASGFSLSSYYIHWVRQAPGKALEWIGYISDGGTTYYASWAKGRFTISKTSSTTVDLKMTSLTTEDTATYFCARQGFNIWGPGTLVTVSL VL: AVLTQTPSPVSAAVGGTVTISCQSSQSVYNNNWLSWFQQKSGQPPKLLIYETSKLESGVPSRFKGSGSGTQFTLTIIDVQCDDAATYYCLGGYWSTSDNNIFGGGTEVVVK displays A450 of 1.58
